The entries below are paired with their reported protein stability index.
method-description: protein stability index of a GFP-peptide fusion (GPS, HEK-293T) (PSI 1-6); higher = more stable;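 also: 24-mer peptide tiles fused after GFP, lentivirally expressed, FACS-sorted into six equal bins by GFP/DsRed ratio, decoded by Illumina sequencing, PSI is the read-weighted mean bin number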
experimental-setup: treatment: DMSO; c terminus: a fixed tail appended
Respond using a number only.

Please report the measured protein stability index for LLRDPADASEAHESSSRGEAGAPG [CHGB]
5.45

Please report the measured protein stability index for VFAHCKEAPSTASSTPDSTEGGND [RTN2]
5.42

Please report the measured protein stability index for RRLEQRWGFGLEELYGLALRFFKE [ACBD3]
2.53

***
Please report the measured protein stability index for TNKFYMLDSRSTDRVLQWERIDCQ [KLHDC2]
2.43

These measurements were taken from the supplement of paper PMC10567573.
